molecular target: Runt-related transcription factor 1 (Homo sapiens) + Core-binding factor subunit beta (Homo sapiens) (UniProt Q01196+Q13951); assay: disruptors of Runt domain/CBFb-SMMHC interaction – biochemical, FRET, Cerulean-Runt, Venus-CBFb-SMMHC, uHTS, primary screen (AID 1434); details: Cerulean-Runt/Venus-CBFb-SMMHC FRET ratio 530/480, 1 h; at 20 µM; active compounds read high;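 further: 0% = DMSO wells and 100% = wells with excess untagged CBFb-SMMHC; inhibitors lower the FRET ratio by blocking Runt binding to CBFb-SMMHC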
Sequence (Q01196 whole entry, looked up, the tested form may be a part): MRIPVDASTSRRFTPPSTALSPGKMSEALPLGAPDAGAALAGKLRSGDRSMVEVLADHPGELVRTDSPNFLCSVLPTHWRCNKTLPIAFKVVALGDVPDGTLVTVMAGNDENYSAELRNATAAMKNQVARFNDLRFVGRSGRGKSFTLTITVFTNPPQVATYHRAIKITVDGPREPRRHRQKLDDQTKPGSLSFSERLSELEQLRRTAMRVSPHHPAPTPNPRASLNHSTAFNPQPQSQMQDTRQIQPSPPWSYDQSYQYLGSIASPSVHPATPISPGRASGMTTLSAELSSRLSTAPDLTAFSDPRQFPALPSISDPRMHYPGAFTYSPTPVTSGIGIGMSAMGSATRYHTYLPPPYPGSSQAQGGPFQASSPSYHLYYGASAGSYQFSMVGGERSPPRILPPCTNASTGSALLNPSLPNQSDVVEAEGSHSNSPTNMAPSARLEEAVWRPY
Sequence (Q13951 whole entry, looked up, the tested form may be a part): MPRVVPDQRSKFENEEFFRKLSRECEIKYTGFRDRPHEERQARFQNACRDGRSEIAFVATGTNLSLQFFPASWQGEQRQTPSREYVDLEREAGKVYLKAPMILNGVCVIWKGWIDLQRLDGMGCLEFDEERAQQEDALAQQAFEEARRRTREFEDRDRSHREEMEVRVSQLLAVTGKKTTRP
Among all 220,000 compounds or so, about 1,600 (0.73%) were called active. The entries come from a sample that favours actives as a whole.
Give measured inhibition for each item. Keep answers brief.
Give the value, in units of %, as a plain number.

QUERY: Need inhibition, item `COCCCn1c(CCC(=O)O)ccc1-c1ccc(F)cc1`
RESULT: 26.6

QUERY: Item: Cc1cc2c(cc1C)[n+](C)cn2CC(O)COCC1CC=CCC1 (stereo unspecified)
RESULT: 7.6

QUERY: Now try CN1CCNC(=O)C1CC(=O)NCCC1=CCCCC1 (stereo unspecified) .
RESULT: -1.1

QUERY: Entry COc1ccc(C(C(=O)NC2CCCCC2)N(C(=O)CCl)c2ccccc2Cl)cc1 (stereo unspecified) please
RESULT: -1.2

QUERY: Similarly, `O=C(Cn1c(-c2ccccn2)nc2ccccc21)NCCN1CCOCC1` ?
RESULT: -0.1

QUERY: Repeat with `COc1ccc(CCN=C2SCC(=O)N2Cc2ccccc2)cc1OC`
RESULT: -0.6

QUERY: What about this compound? `COc1ccc(CCNC2=C(Cl)C(=O)N(Cc3ccccc3)C2=O)cc1OC`
RESULT: 92.2

QUERY: Also `c1ccc2cc3c(NCCN4CCOCC4)ccnc3cc2c1` ?
RESULT: 78.2

QUERY: Entry to check: `CCn1c(NC(=O)c2ccccc2)c(-c2cccs2)c(=O)c2ccccc21`
RESULT: 2.4

QUERY: Request: `Cc1cc(Cl)ccc1NNC(=O)c1snnc1C`
RESULT: -2.5

QUERY: Also `COc1ccc(CCN(C)CCN2C(=O)c3ccccc3C2=O)cc1OC` ?
RESULT: 6.2

----------
target: Runt-related transcription factor 1 (Homo sapiens) + Core-binding factor subunit beta (Homo sapiens) (UniProt Q01196+Q13951); assay: disruptors of Runt domain/CBFb-SMMHC interaction – biochemical, FRET, Cerulean-Runt, Venus-CBFb-SMMHC, uHTS, primary screen (AID 1434); conditions: Cerulean-Runt/Venus-CBFb-SMMHC FRET ratio 530/480, 1 h; at 20 µM; active compounds read high;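 further: 0% = DMSO wells and 100% = wells with excess untagged CBFb-SMMHC; inhibitors lower the FRET ratio by blocking Runt binding to CBFb-SMMHC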
Hit rate of the full screen: of about 220,000 compounds, about 1,600 (0.73%) were called active. This is one part of a sample in which actives are shown more often than they occur.
MEASURED ATTRIBUTE: inhibition

QUERY: Entry under review: `CCCNC(=O)N1CCN(C(=O)NCCC)CC1` . Reported inhibition?
RESULT: 2.1% (inactive)

QUERY: And the next one, `Nc1c(C(=O)c2cccs2)sc2nsc(SCCN3CCCCC3)c12` ?
RESULT: -179% (inactive)

QUERY: // next record `COCCCNC(=S)NC(=O)c1ccc([N+](=O)[O-])cc1`
RESULT: 4.6% (inactive)

QUERY: Now the same for `N#CCc1ccc(OC(=O)c2cccnc2)cc1`
RESULT: 3% (inactive)

QUERY: Moving on to the next molecule: `Cc1ccc2nc(NCCCNC(=O)c3cnccn3)c(C#N)cc2c1`
RESULT: 32% (inactive)

QUERY: Follow-up item: `O=C(Oc1cccnc1)c1cc2ccccc2oc1=O`
RESULT: -10.2% (inactive)

QUERY: How about this molecule: `CCN(CC)C(=O)c1sc2nc(-c3ccccc3)ccc2c1N`
RESULT: 15.5% (inactive)

QUERY: Next molecule up: CC(C)CCNC(=O)C1CCC(CNc2c(N3CCC(C)CC3)c(=O)c2=O)CC1 (configuration not stated)
RESULT: -1.8% (inactive)

QUERY: `CN(C)c1nc(N)nc(Cn2nnc(-c3ccc(C(F)(F)F)cc3)n2)n1` , same question.
RESULT: 1.3% (inactive)

QUERY: Lookup `Cc1ccc(NC(=O)C2(N3CCC3=O)CCCCC2)cc1`
RESULT: 3.4% (inactive)

QUERY: What do you get for `O=C(CC1CCCCC1)NCc1ccc(F)cc1` ?
RESULT: -2% (inactive)

QUERY: Now the molecule CN1CCNC(=O)C1CC(=O)N1CC=C(c2ccc(F)cc2)CC1 (configuration not stated)
RESULT: -7.4% (inactive)

----------
target: Runt-related transcription factor 1 (Homo sapiens) + Core-binding factor subunit beta (Homo sapiens) (UniProt Q01196+Q13951); test: disruptors of Runt domain/CBFb-SMMHC interaction – biochemical, FRET, Cerulean-Runt, Venus-CBFb-SMMHC, uHTS, primary screen (AID 1434); settings: Cerulean-Runt/Venus-CBFb-SMMHC FRET ratio 530/480, 1 h; at 20 µM;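 further: 0% = DMSO wells and 100% = wells with excess untagged CBFb-SMMHC; inhibitors lower the FRET ratio by blocking Runt binding to CBFb-SMMHC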
Out of some 220,000 compounds screened, about 1,600 (0.73%) were called active.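 Rule for the calls: active = mean inhibition across duplicate retests at 20 µM reaching about 50% (limit read from the data); inactive = the rest, inconclusive results apart.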 The list comes from a sample in which actives are over-represented; it also holds close analogues and randomly drawn compounds.
Respond only with the outcome that fits, drawn from 1 (yes) (active), 0 (no) (inactive)

QUERY: I would be grateful if you could indicate the recorded call for `COc1ccc2c(c1)CCc1cn3ncc(C#N)c3nc1-2` .
RESULT: 1 (yes)

QUERY: Same question, `CC(C)(C)c1ccc(/C=C2\Oc3c(ccc(O)c3CN3CCN(CCO)CC3)C2=O)cc1` this time
RESULT: 1 (yes)

QUERY: Field entry: `COC(=O)Cc1c(C)c2ccc(OCC(=O)NCc3ccc4c(c3)OCO4)cc2oc1=O`
RESULT: 0 (no)

QUERY: What about this molecule? `NC(=O)COc1ccc2c3c(c(=O)oc2c1)CCCCC3`
RESULT: 0 (no)

QUERY: Record: COc1ccc(C2/C=C\CN(S(=O)(=O)c3cccs3)CC(=O)N2Cc2ccc(F)cc2)cc1 (centres undefined)
RESULT: 0 (no)

QUERY: // repeat for COc1cc(COCC(O)CN2CCN(Cc3ccc4c(c3)OCO4)CC2)cc(OC)c1OC (centres undefined) and report
RESULT: 0 (no)

QUERY: Same again, this time with `CCN1CC=C2C(C#N)=C(N)C(C#N)(C#N)[C@H](c3ccoc3)[C@H]2C1`
RESULT: 0 (no)

QUERY: Another molecule to check: `COc1ccc(-n2c(C)nn(CC3CC3)c2=O)cc1`
RESULT: 0 (no)

QUERY: Next record, please: NS(=O)(=O)c1ccc(NC2=CC(c3ccc(F)cc3)N(c3ccc(S(N)(=O)=O)cc3)C2=O)cc1 (centres undefined)
RESULT: 0 (no)

QUERY: Moving on to `Nc1[nH][nH]c(=O)c1N=Nc1ccc2c(c1)OCO2`
RESULT: 0 (no)

QUERY: Also need `C=CCn1c(COc2ccccc2)nnc1SCC(=O)NCC(=O)OCC` , thanks.
RESULT: 0 (no)

QUERY: Subsequent entry: `N#Cc1cnn2cc(CCN3CCOCC3)c(-c3ccc(F)cc3)nc12`
RESULT: 0 (no)

QUERY: Queued: `CC(=O)c1c(C)[nH]c(C(=O)OCC(=O)Nc2cc(S(=O)(=O)N3CCCCC3)ccc2C)c1C`
RESULT: 0 (no)

QUERY: Another molecule to check: `O=C(CSc1nc2ccccc2o1)N/N=C/c1ccccc1C(=O)O`
RESULT: 0 (no)

QUERY: And for `O=c1[nH]c(CN2CCN(S(=O)(=O)c3ccc4c(c3)OCCO4)CC2)nc2sc3c(c12)CCCC3` ?
RESULT: 0 (no)

QUERY: Then `CCOC(=O)CNC(=O)CSc1nnc(COc2ccc(Cl)cc2)n1CC` ?
RESULT: 0 (no)

QUERY: Cool, now COc1ccc(NC(=O)C(Br)C(C)C)cc1 (centres undefined)
RESULT: 0 (no)

QUERY: Next: `O=C(COC(=O)/C=C/c1cccc(Cl)c1)NCCc1ccccc1`
RESULT: 0 (no)

QUERY: And for `CN(C)c1ccnc2sc(C(=O)c3ccccc3)c(N)c12` ?
RESULT: 0 (no)

QUERY: Record: `COc1ccc2cc1Oc1ccc(cc1)C[C@H]1c3cc(c(OC)cc3CCN1C)Oc1c(O)c(OC)cc3c1[C@H](C2)N(C)CC3`
RESULT: 0 (no)

QUERY: Same question, O=C(c1ccc(C(F)(F)F)cc1)C1CCCN(C(=O)c2csnn2)C1 (centres undefined) this time
RESULT: 0 (no)

QUERY: Consider next the molecule `Cc1cc(C)c2nc(-c3ccco3)cc(C(=O)O)c2c1` in the same way.
RESULT: 0 (no)

QUERY: # iterate: `CCOc1ccc2nc(N3CCCN(C(=O)Nc4ccccc4C)CC3)c(C#N)cc2c1`
RESULT: 1 (yes)

QUERY: Continue with `O=c1[nH]c2ccccc2n2c(-c3ccccc3)nnc12`
RESULT: 1 (yes)

QUERY: # repeat for `CCOc1ccc2nc(NCCNS(=O)(=O)c3ccccc3)c(C#N)cc2c1`
RESULT: 0 (no)

QUERY: Can you check `Cc1cc(C)c2nc3nc(C)cc(C)c3c(N)c2c1` next?
RESULT: 1 (yes)

QUERY: Then what about the molecule CCOC(=O)C1=C(c2ccccc2)NC(=S)NC1c1ccc(Cl)cc1 (centres undefined) ?
RESULT: 0 (no)

QUERY: Entry `Cc1nn(C)c(C)c1S(=O)(=O)N1CCC(CO)(Cc2ccc(Cl)cc2)CC1` please
RESULT: 0 (no)

QUERY: And CCCN1CC=C2C(C#N)=C(N)C(C#N)(C#N)C(c3cc(OC)ccc3OC)C2C1 (centres undefined) ?
RESULT: 1 (yes)

QUERY: Now consider `CC(=O)Nc1cc2ccc(OC(C)=O)cc2oc1=O` .
RESULT: 1 (yes)

QUERY: `Cc1cc(C)c2nc(SCCC#N)nc(C)c2c1` , same question.
RESULT: 0 (no)

QUERY: Now this one: `O=[N+]([O-])c1cccc(-c2nnc3c4ccccc4c4ccccc4n23)c1`
RESULT: 0 (no)

QUERY: Same read-out for `Cc1ccc(-c2nc3ccccc3[nH]c2=O)cc1` ?
RESULT: 0 (no)

QUERY: // same read-out, input: `Cc1ccc(S(=O)(=O)NCCc2nnc3ccc(SCc4cccnc4)nn23)cc1`
RESULT: 0 (no)

QUERY: Now this one: `CCOC(=O)c1oc2c(CN3CCN(CCO)CC3)c(O)c(CC)cc2c(=O)c1-c1nc2ccccc2s1`
RESULT: 0 (no)

QUERY: How about `COc1ccc(/C=C2\SC(=S)N(CC(=O)NNC(=O)c3ccncc3)C2=O)cc1` ?
RESULT: 0 (no)

QUERY: Would you kindly repeat that for `CCOc1ccc2cc(C#N)c(SCC(=O)OC)nc2c1` ?
RESULT: 0 (no)

QUERY: Could you do the same for `CC(C)Oc1c(Br)cc(Br)cc1/C=N/NC(N)=S` , please?
RESULT: 0 (no)

QUERY: Let us now turn to `O=c1c(Cl)c(NCc2ccc(F)cc2Cl)cnn1C12CC3CC(CC(C3)C1)C2`
RESULT: 0 (no)

QUERY: `CC(C)N(Cc1ccccc1)C(=O)COC(=O)c1cnccn1` ?
RESULT: 0 (no)

QUERY: Do the same for `O=C(Nc1cc2ccccc2oc1=O)C1CCCCC1` please
RESULT: 0 (no)

QUERY: And what about the molecule `COC(=O)/C=C\C(=O)Nc1cccc([N+](=O)[O-])c1` ?
RESULT: 1 (yes)

QUERY: Now the same for `O=c1oc2c(CN3CCCCC3)c(O)ccc2c2c1CCCCC2`
RESULT: 1 (yes)

QUERY: What do you have for `CCOC(=O)NNc1cc(C(F)(F)F)ccn1` ?
RESULT: 0 (no)
